- System: 435261-313-R-J1-PDC tumor spheroid viability;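 note: spheroids exposed to compounds for 7 days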
- METHOD_DESCRIPTION: Anticancer human tumor 435261-313-R-J1-PDC patient-derived colon adenocarcinoma cell line growth inhibition [PI3K]
- CONDITION_NOTES: second compound 0.316 µM; first compound 0.316 µM; stronger effect = lower value; spheroids with HUVEC and MSC
MEASURED_PARAMETER: viability, T/C (%)
# value in %; strip the unit string

Below are worked cases with known answers.
C[C@@H](NC(=O)c1ncnc(N)c1Cl)c1ncc(C(=O)Nc2cc(C(F)(F)F)c(Cl)cn2)s1 + CC(Nc1ccc2c(c1)OCCn1cc(N3C(=O)OCC3C(F)F)nc1-2)C(N)=O | 36.9
C[C@@H](NC(=O)c1ncnc(N)c1Cl)c1ncc(C(=O)Nc2cc(C(F)(F)F)c(Cl)cn2)s1 + CC(Nc1ncnc2nc[nH]c12)c1cc2cccc(Cl)c2c(=O)n1-c1ccccc1 | 135
CC1(C)CCC(CN2CCN(c3ccc(C(=O)NS(=O)(=O)c4ccc(NCC5CCOCC5)c([N+](=O)[O-])c4)c(Oc4cnc5[nH]ccc5c4)c3)CC2)=C(c2ccc(Cl)cc2)C1 + Cc1nc(NC(=O)N2CCCC2C(N)=O)sc1-c1ccnc(C(C)(C)C(F)(F)F)c1 | 44

[ask] Given CC(Cn1ccc(-c2ccc(C#N)c(Cl)c2)n1)NC(=O)c1cc(C(C)O)[nH]n1 (centres undefined) + CC(Nc1ccc2c(c1)OCCn1cc(N3C(=O)OCC3C(F)F)nc1-2)C(N)=O , state its recorded viability, T/C.
[reply] 20.2

Reference source for all entries: PubChem BioAssay AID1963976
